IC50 for UniProtKB Q99685 - collated from the literature.
OUTCOME MEASURE: IC50 (nM)

>>> reported_measurement("C#Cc1ccc(C(=O)N2CCN(c3nc4nc(Cl)ccc4o3)CC2)cc1OC")
109

(A) Cc1cc(OC[C@H]2CCN(C(=O)N3CC[C@@H]4OCC(=O)N[C@@H]4C3)C[C@H]2C)cnc1C(F)(F)F
(B) Cn1ccc(-c2ccc(C3CN(C(=O)N4CC[C@@H]5OCC(=O)N[C@@H]5C4)C3)cc2)n1
Problem: Which of the two items, A and B , has the greater recorded IC50? Field: selected label. Fill in the label of the entry you choose.
Result: B

(a) O=C1CO[C@H]2CCN(C(=O)N3C[C@@H]4[C@H](C3)[C@H]4c3ccn(-c4ccc(F)cc4Cl)n3)C[C@H]2N1
(b) O=C(c1ccc2c(ccn2-c2ccc(C(F)(F)F)cc2)c1)N1CC(N2CCN(c3ncccn3)CC2=O)C1
Problem: Task for the reader: decide whether a or b has the larger IC50. Write down the label of the entry you select.
Result: a

----------
Collected set of IC50 measured with MAGL (Homo sapiens) across studies.
OUTCOME MEASURE: IC50 (nM)

>>> reported_measurement("O=C(N1CC(OCc2ccc(C(F)(F)F)cc2F)C1)N1C[C@@H]2OCc3nn[nH]c3[C@@H]2C1 (single isomer, unassigned)")
2700

(P) CN(C1CN(C(=O)c2ccc(-c3cccc(C(F)(F)F)c3)cc2)C1)[C@H]1CCN(C(=O)c2ccccc2)C1
(Q) CN(C(=O)C1(c2cccc(C(F)(F)F)c2)CC1)C1CCN(C(=O)N2CC[C@@H]3OCC(=O)N[C@@H]3C2)CC1
(R) Cc1c(C(=O)N2CC(N3CCN(C(=O)c4nccs4)CC3)C2)nc2ccc(Br)cn12
Problem: Reorder: IC50, max to min. Reply with the labels, ordered as the question asks.
Result: R, Q, P

----------
// cross-source set; read-out = IC50; system = MAGL (Homo sapiens)
OUTCOME MEASURE: IC50 (µM)

>>> reported_measurement("O=C1CO[C@H]2CCN(C(=O)N3CC(S(=O)(=O)c4ccc(C(F)(F)F)cc4Cl)C3)C[C@H]2N1")
2.64

(a) CC(C)(Oc1ccc(C2CN(C(=O)CCc3cnn[nH]3)C2)cc1)C(F)(F)F
(b) Cc1cncnc1-c1cccc(C(=O)N2CCN3C[C@@H](c4ccc(F)c(Cl)c4)OC[C@@H]3C2)c1Cl
Problem: Pick one, a or b : lowest reported IC50. State the label of the item chosen.
Result: a

----------
Field: pIC50. System: MAGL (Homo sapiens, UniProt Q99685). Provenance: assorted publications.
pIC50: −log10 of the molar value.
OUTCOME MEASURE: pIC50

>>> reported_measurement("COc1cccc(C(=O)N2CCN3C[C@](O)(c4ccc(F)c(Cl)c4)OC[C@H]3C2)c1Cl")
6.75
>>> reported_measurement("O=C(c1ccc(-c2ccccc2)cc1)N1CC(NC2CN(C(=O)c3ccccc3)CC2F)C1 (stereo not drawn)")
6.33
>>> reported_measurement("Cn1cc(Cc2ccc(F)cc2)c2ccc(C(=O)N3CC(N4CCN(C(=O)c5ccc[nH]5)CC4)C3)cc21")
7.80
>>> reported_measurement("O=C1CC[C@@H](COC(=O)N2CC(OCc3ccc(C(F)(F)F)cc3F)C2)N1")
6.78
>>> reported_measurement("O=C1CO[C@H]2CCN(C(=O)N3CCC(N4CCc5cc(Cl)ccc54)CC3)C[C@H]2N1")
7.80

(a) Cc1ccc(-n2ccc3cc(C(=O)N4CC(N5CCN(C(=O)c6nccs6)CC5)C4)ccc32)nc1
(b) O=C(C#Cc1ccc(Cl)cc1)N1CCN(c2nc3nc(Cl)ccc3o2)CC1
(c) Cc1n[nH]c2ccc(C(=O)N3CCN4C[C@@H](c5ccc(F)c(Cl)c5)OC[C@@H]4C3)c(Cl)c12
(d) O=C(c1ccc2c(-c3ccc(C(F)(F)F)cc3)ncnc2c1)N1CC(N[C@H]2CCN(C(=O)c3ccccc3)C2)C1
(e) COc1cccc(C(=O)N2CCN3C[C@@](O)(c4ccc(F)c(Cl)c4)CC[C@@H]3C2)c1Cl
Problem: Parameters: sort_field (pIC50), sort_dir (desc). Provide your answer as the labels ordered per the instruction.
Result: e, a, c, b, d
(e: 8.35, a: 7.47, c: 7.20, b: 6.34, d: 6.07)

(A) Cc1ccc(-c2nnc(-c3ccc(C(=O)N4CC(N5CCN(C(=O)c6nccs6)CC5)C4)cc3)o2)cc1
(B) O=C1CO[C@H]2CCN(C(=O)N3CCC4(CC3)CC(Oc3ccc(C(F)(F)F)cc3F)C4)C[C@@H]2N1 (single isomer, unassigned)
(C) O=C(c1cscn1)N1CCN(C2CN(C(=O)c3sc4c(F)c(C(F)(F)F)ccc4c3Cl)C2)CC1
(D) O=C(c1ccc2c(-c3ccccc3)c[nH]c2c1)N1CC(N[C@H]2CCN(C(=O)c3cscn3)C2)C1
(E) Cc1ccc2oc(N3CCN(C(=O)c4ccc(-c5cn(CC6(C)COC6)nn5)cc4)CC3)nc2n1
Problem: hey, can you rank those compounds up there by pIC50? biggest number first please Give me the labels in the order the question wants.
Result: B, C, A, D, E
(B: 8.15, C: 7.82, A: 7.39, D: 7.13, E: 5.97)

----------
Published IC50 for MAGL (Homo sapiens, UniProt Q99685), assembled from different documents, is shown next.
OUTCOME MEASURE: IC50 (nM)

# example entries with known answers
>>> reported_measurement("Cc1nc(-c2ccc(F)cc2)sc1C(=O)N1CC(N[C@H]2CCN(C(=O)c3nccs3)C2)C1")
1130
>>> reported_measurement("CCCCC/C=C\\C/C=C\\C/C=C\\C/C=C\\CCCC(=O)N1CC(N2CCN(C(=O)c3nccs3)CC2)C1")
419
>>> reported_measurement("O=C(c1cccc(-c2cccc(C(F)(F)F)c2)c1)N1CC(N2CCN(C(=O)c3nccs3)CC2)C1")
11
>>> reported_measurement("O=C1CO[C@H]2CCN(C(=O)N3CC(c4ccc(N5CC(F)(F)C5)cc4)C3)C[C@H]2N1")
24
>>> reported_measurement("O=C(c1cc(-c2cccc(F)c2)c2[nH]ccc2c1)N1CC(N2CCN(C(=O)c3nccs3)CC2)C1")
85
>>> reported_measurement("Cn1cc(-c2ccc(C3CN(C(=O)N4CC[C@@H]5OCC(=O)N[C@@H]5C4)C3)cc2)cn1")
134

(P) Cc1nn(-c2ccc(Cl)c(Cl)c2)c(C)c1C(=O)N1CC(N2CCN(C(=O)c3nccs3)CC2)C1
(Q) O=C(c1cccc(-c2ccn[nH]2)c1Cl)N1CCN2C[C@](O)(c3ccc(Cl)cc3)CC[C@H]2C1
(R) COc1cc(C(c2ccccc2)C2CCN(C(=O)c3ccc4c(c3)NC(=O)CO4)CC2)ccc1OCCF (single isomer, unassigned)
(S) O=C1CO[C@H]2CCN(C(=O)N3CC(c4ccc(Oc5ccc(Cl)cc5)cc4)C3)C[C@H]2N1
(T) O=C(c1cscn1)N1CCN(C2CN(C(=O)c3nn(-c4ccc(Cl)cc4Cl)c4c3CCC/C4=C\c3ccc(Cl)cc3)C2)CC1
Problem: Order the 5 compounds from highest to lowest IC50. Write out the labels following the order that was asked for.
Result: P, Q, T, R, S
(P: 273 nM, Q: 76.3 nM, T: 41 nM, R: 0.17 nM, S: 0.01 nM)

(I) Cc1ccc(COC2CN(C(=O)N3CC[C@@H]4OCC(=O)N[C@@H]4C3)C2)c(C)c1
(II) O=C(c1ccc(-n2cnc3ccccc32)cc1)N1CCN(C2CN(C(=O)c3ccccc3)C2)CC1
(III) N#Cc1cc(Cl)ccc1-c1ccc(C2CN(C(=O)N3CC[C@@H]4OCC(=O)N[C@@H]4C3)C2)cc1
Problem: Rank entries according to their IC50, from the largest number down. Use the labels to give the requested order.
Result: II, I, III
(II: 10300 nM, I: 28 nM, III: 0.1 nM)

----------
Here's a roundup of IC50 values tested on UniProt:Q99685, taken from various published works.

Answered cases to consult:
>>> reported_measurement("CC(=O)NC1CCN(c2cc(C(F)(F)F)ccc2CN2CCN(C(=O)n3ccc(NS(C)(=O)=O)n3)CC2)CC1")
"≤ 100 nM"
>>> reported_measurement("Cc1cc(-n2ccc3cc(C(=O)N4CC(N5CCN(C(=O)c6nccs6)CC5)C4)ccc32)ccc1C#N")
"< 5 nM"

For O=C1CO[C@H]2CCN(C(=O)N3CCC(C(NCc4cccc(C(F)(F)F)c4)C(F)(F)F)CC3)C[C@H]2N1 (some centres unmarked) on UniProt:Q99685, measured IC50 was 55 nM

Form field IC50 for item O=C(c1ccc[nH]1)N1CCC(C2CN(C(=O)c3sc4cc(C(F)(F)F)ccc4c3Cl)C2)CC1 on UniProt:Q99685: < 5 nM

// assay UniProt:Q99685, entry O=C(c1ccc(Oc2cccc(Cl)c2)c(F)c1)N1CC(N2CCN(C(=O)c3nccs3)CC2)C1 , IC50 value = < 5 nM
